compounds and their reported melting point

Solved entries:
O=C(CO)c1ccc2ccccc2c1: 114 to 115 °C
C=C(C)c1ccncc1-c1c(O)cc(C(C)C(C)CCCCC)cc1O (stereo unspecified): 128 to 129 °C
N#Cc1ccc(-c2ccc(OC3SCC(O)C(O)C3O)cn2)cn1 (stereo unspecified): 167 °C
Cc1ccc(C(=O)NC(NC(=S)Nc2cccnc2)C(C)(C)C)cc1 (stereo unspecified): 168 to 169 °C
N#Cc1nn(-c2c(Cl)cc(C(F)(F)F)cc2Cl)c(CO)c1SC(F)(F)F: 118 °C

Task item: Item COc1ccc(-c2cc(-c3ccccc3F)c(C#N)c(C)n2)cc1 has what recorded melting point?
Reply: 152 to 153 °C

Task item: Using the record for CSc1ccc(C(O)CBr)cc1Cl (stereo unspecified) , report its melting point.
Reply: 86 to 87 °C

Task item: Param item = CN(C)C=Nc1c(-c2c(F)cc(F)cc2F)c(Cl)nc2ncnn12 ; retrieve measured melting point.
Reply: 188 to 190 °C

Task item: Fill in: melting point of Cc1ccc(C)n1N(C)c1ccc(N2CCOCC2)nn1 is ___
Reply: 119 to 122 °C

Task item: So what's the measured melting point for this one? CN1c2ccccc2C(=O)c2ccccc2C12OCCO2
Reply: 192 to 193 °C

Task item: Requested read-out: melting point. Entry: COc1cc2ccc3c4cc5c(cc4ncc3c2cc1OC)OCO5
Reply: 171 °C
